System: Klebsiella pneumoniae
PROTOCOL_SUMMARY: Antibacterial activity against porin, OmpA positive extended-spectrum beta-lactamase producing Klebsiella pneumoniae KPBj1 revertant by disk agar diffusion method
Type: functional

| GIVEN_SMILES | MIC |
| --- | --- |
| CCn1cc(C(=O)O)c(=O)c2ccc(C)nc21 | 4 µg/mL |
| O=C(N[C@H](CO)[C@H](O)c1ccc([N+](=O)[O-])cc1)C(Cl)Cl | 2 µg/mL |
| C[C@H]1COc2c(N3CCN(C)CC3)c(F)cc3c(=O)c(C(=O)O)cn1c23.C[C@H]1COc2c(N3CCN(C)CC3)c(F)cc3c(=O)c(C(=O)O)cn1c23.O | 0.03 µg/mL |
| C[C@@H](O)[C@H]1C(=O)N2C(C(=O)O)=C(S[C@@H]3CN[C@H](C(=O)Nc4cccc(C(=O)O)c4)C3)[C@H](C)[C@H]12 | 0.03 µg/mL |
| CO/N=C(\C(=O)N[C@@H]1C(=O)N2C(C(=O)O)=C(COC(C)=O)CS[C@H]12)c1csc(N)n1 | 128 µg/mL |
| CC(C)(O/N=C(\C(=O)N[C@@H]1C(=O)N2C(C(=O)[O-])=C(C[n+]3ccccc3)CS[C@H]12)c1csc(N)n1)C(=O)O | 16 µg/mL |
| CO[C@@]1(NC(=O)Cc2cccs2)C(=O)N2C(C(=O)O)=C(COC(N)=O)CS[C@@H]21 | 2 µg/mL |
